Biological target: T1, recombinant human Fc-PD-1 protein (human, UniProt Q15116 25-170)
T1 construct: may be the same protein as the PD-1 Fc fusion of the Luminex assays; also called recombinant human PD-1 in an Fc fusion construct; not shown: Fc part not described
T1 sequence (Q15116 25-170): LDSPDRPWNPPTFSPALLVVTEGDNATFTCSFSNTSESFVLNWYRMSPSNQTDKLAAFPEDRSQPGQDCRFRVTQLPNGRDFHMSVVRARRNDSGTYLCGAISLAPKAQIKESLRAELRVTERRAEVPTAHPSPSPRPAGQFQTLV
Assay: Biacore, Fab, human Fc-PD-1
Each entry below carries its recorded koff.
Kindly answer with a numeric value in s⁻¹, unit omitted.

Example results:
binder: A35805 (Fab, V domains shown, humanized Fab clone of 137F2; also called humanized antibody A35805) VH: QVQLVQSGSELKKPGASVKVSCKASGYTFTNYWIGWVRQAPGKGLEWMGDIYPGGGYTNYNEKFKGRVTITADKSTSTAYMELSSLRSEDTAVYYCARGYDFVLDRWGQGTTVTVSS VL: DVVMTQSPAFLSVTPGEKVTITCKSSQSLFNSETQKNYLAWYQQKPGQPPKLLIYWASTRESGVPSRFSGSGSGTDFTFTISSLEAEDAATYYCKQSYTLRTFGGGTKLEIK
scale_unit: s⁻¹
koff: 8.78e-05
--
binder: A35799 (Fab, V domains shown, humanized Fab clone of 137F2; also called humanized antibody A35799) VH: QMQLVQSGAEVKKTGSSVKVSCKASGYTFTNYWIGWVRQMPGKGLEWMGDIYPGGGYTNYNEKFKGRVTITADKSTSTAYMELSSLRSEDTAVYYCARGYDFVLDRWGQGTTVTVSS VL: DVVMTQSPAFLSVTPGEKVTITCKSSQSLFNSETQKNYLAWYQQKPGQPPKLLIYWASTRESGVPSRFSGSGSGTDFTLTISSLQPEDFATYYCKQSYTLRTFGGGTKLEIK
scale_unit: s⁻¹
koff: 7.43e-05
--
binder: A35793 (Fab, V domains shown, humanized Fab clone of 137F2; also called humanized antibody A35793) VH: QMQLVQSGPEVKKPGTSVKVSCKASGFTFTNYWIGWVRQAPGQALEWMGDIYPGGGYTNYNEKFKGRVTITADKSTSTAYMELSSLRSEDTAVYYCARGYDFVLDRWGQGTTVTVSS VL: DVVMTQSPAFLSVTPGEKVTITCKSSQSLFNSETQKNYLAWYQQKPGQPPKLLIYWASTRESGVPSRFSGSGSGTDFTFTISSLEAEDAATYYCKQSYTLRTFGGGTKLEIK
scale_unit: s⁻¹
koff: 9.49e-05
--
binder: A35797 (Fab, V domains shown, humanized Fab clone of 137F2; also called humanized antibody A35797) VH: EVQLVQSGAEVKKHGESLKISCKGSGYSFTNYWIGWVRQATGQGLEWMGDIYPGGGYTNYNEKFKGRVTITADKSTSTAYMELSSLRSEDTAVYYCARGYDFVLDRWGQGTTVTVSS VL: DIQMTQSPSSLSASVGDRVTITCKSSQSLFNSETQKNYLAWYQQKPGQPPKLLIYWASTRESGVPSRFSGSGSGTDFTLTISSLQPEDFATYYCKQSYTLRTFGGGTKLEIK
scale_unit: s⁻¹
koff: 8.02e-05

*Q* // lookup koff for A35796 (Fab, V domains shown, humanized Fab clone of 137F2; also called humanized antibody A35796) VH: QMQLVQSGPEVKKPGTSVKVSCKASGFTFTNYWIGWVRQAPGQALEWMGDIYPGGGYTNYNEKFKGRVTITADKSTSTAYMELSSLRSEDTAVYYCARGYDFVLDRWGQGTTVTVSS VL: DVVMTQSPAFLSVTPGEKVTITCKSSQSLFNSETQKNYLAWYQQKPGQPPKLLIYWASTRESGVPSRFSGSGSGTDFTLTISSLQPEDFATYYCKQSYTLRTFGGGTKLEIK
*A* 0.000123

*Q* // lookup koff for A35795 (Fab, V domains shown, humanized Fab clone of 137F2; also called humanized antibody A35795) VH: QVQLVQSGAEVKKPGASVKVSCKASGYTFTNYWIGWVRQAPGQGLEWMGDIYPGGGYTNYNEKFKGRVTITADKSTSTAYMELSSLRSEDTAVYYCARGYDFVLDRWGQGTTVTVSS VL: DVVMTQSPAFLSVTPGEKVTITCKSSQSLFNSETQKNYLAWYQQKPGQAPRLLIYWASTRESGVPSRFSGSGSGTDFTLTISSLQPEDFATYYCKQSYTLRTFGGGTKLEIK
*A* 8.24e-05

*Q* // lookup koff for A35818 (Fab, V domains shown, humanized Fab clone of 137F2; also called humanized antibody A35818) VH: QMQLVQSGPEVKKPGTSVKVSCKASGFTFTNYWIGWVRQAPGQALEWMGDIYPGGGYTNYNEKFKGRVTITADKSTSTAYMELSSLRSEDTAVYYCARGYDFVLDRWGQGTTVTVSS VL: DVVMTQSPAFLSVTPGEKVTITCKSSQSLFNSETQKNYLAWYQQKPGQAPRLLIYWASTRESGVPSRFSGSGSGTDFTFTISSLEAEDAATYYCKQSYTLRTFGGGTKLEIK
*A* 0.000104
